Origin of measurements: paper PMC4492759

assayedTarget: rat CB1 (Rattus norvegicus)
Construct: expressed in transfected cells; host or cells: HEK293s, transient transfection; membranes prepared
Sequence (P20272 whole entry): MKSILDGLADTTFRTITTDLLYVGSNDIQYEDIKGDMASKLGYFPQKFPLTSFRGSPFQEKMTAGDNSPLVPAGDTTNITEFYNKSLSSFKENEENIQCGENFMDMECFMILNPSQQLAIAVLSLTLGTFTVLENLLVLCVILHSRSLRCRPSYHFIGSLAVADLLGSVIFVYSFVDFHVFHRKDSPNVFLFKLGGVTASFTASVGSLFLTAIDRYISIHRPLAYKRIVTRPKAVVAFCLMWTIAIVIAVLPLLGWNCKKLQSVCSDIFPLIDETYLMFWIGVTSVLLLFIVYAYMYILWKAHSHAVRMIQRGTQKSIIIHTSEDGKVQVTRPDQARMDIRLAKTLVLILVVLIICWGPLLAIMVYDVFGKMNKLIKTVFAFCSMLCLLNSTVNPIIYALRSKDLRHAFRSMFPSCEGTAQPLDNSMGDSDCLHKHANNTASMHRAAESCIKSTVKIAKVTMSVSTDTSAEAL
assayName: [35S]-GTPγS binding, membranes of HEK293s cells transfected with rat CB1
Type: biochemical
testContext: agonist mode; mean ± SEM, at least three experiments; read-out: CB1 EC50, Rat
readoutKind: EC50 (nM)
The answer is to be given in nM; state only the numeric part.

Simply: CCCCC/C=C\C/C=C\C/C=C\C/C=C\CCCC(=O)NCCCl [ACEA, arachidonyl-2′-chloroethylamide] , rat CB1 (Rattus norvegicus), EC50 = 7

* * *

assayedTarget: mouse CB1 (Mus musculus, UniProt P47746)
Construct: expressed in transfected cells; host or cells: HEK293s, transient transfection; membranes prepared
Sequence (P47746 whole entry): as the sequence (P20272 whole entry) above, with E95D counted along it
assayName: [35S]-GTPγS binding, membranes of HEK293s cells transfected with mouse CB1
Type: biochemical
testContext: antagonist mode, vs EC80 concentration of CP55940; mean ± SEM; read-out: CB1 EC50, Mouse (ligand behaved as an antagonist)
readoutKind: pEC50
Notebook: values listed as pEC50 are -log10 of the concentration (mol/L).

Query Cc1c(C(=O)NN2CCCCC2)nn(-c2ccc(Cl)cc2Cl)c1-c1ccc(I)cc1 yields pEC50 of 7.89

Query Cc1c(C(=O)NN2CCOCC2)nn(-c2ccc(Cl)cc2Cl)c1-c1ccc(I)cc1 yields pEC50 of 8.10

* * *

assayedTarget: rat GPR55 (Rattus norvegicus, UniProt F1MAK4)
Construct: expressed in transfected cells; host or cells: HEK293s, transient transfection; membranes prepared
Sequence (F1MAK4 1-319): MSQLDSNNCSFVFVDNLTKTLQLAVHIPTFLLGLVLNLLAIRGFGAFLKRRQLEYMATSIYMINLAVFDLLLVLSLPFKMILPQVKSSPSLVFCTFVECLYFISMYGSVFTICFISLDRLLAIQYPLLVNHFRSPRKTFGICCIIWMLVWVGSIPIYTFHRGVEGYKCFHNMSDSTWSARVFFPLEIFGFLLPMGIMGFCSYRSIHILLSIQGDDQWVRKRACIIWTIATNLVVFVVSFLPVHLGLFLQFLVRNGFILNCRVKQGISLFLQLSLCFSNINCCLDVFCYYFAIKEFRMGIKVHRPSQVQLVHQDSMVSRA
assayName: [35S]-GTPγS binding, membranes of HEK293s cells transfected with rat GPR55
Type: biochemical
Please provide measured pEC50 for the entries that follow.
Notebook: values listed as pEC50 are -log10 of the concentration (mol/L).

Query Cc1c(C(=O)NN2CCCCC2)nn(-c2ccc(Cl)cc2Cl)c1-c1ccc(I)cc1 yields pEC50 of 7.13

Query C=C(C)[C@@H]1CCC(C)=C[C@H]1c1c(O)cc(CCCCC)cc1O yields pEC50 of 6.20

Query CCCCC/C=C\C/C=C\C/C=C\C/C=C\CCCC(=O)NCCO [AEA, anandamide] yields pEC50 of 7.62

* * *

assayedTarget: mouse GPR55 (Mus musculus)
Construct: expressed in transfected cells; host or cells: HEK293s, transient transfection; membranes prepared
Sequence (Q3UJF0 whole entry): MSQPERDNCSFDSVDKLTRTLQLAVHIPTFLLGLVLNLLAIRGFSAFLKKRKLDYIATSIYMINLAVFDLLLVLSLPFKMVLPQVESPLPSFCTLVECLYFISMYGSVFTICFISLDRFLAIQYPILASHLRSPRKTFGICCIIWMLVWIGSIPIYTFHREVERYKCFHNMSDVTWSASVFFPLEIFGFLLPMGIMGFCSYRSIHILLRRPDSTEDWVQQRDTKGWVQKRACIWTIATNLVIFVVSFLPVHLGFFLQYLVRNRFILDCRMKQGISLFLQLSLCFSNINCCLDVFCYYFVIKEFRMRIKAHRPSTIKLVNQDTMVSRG
assayName: [35S]-GTPγS binding, membranes of HEK293s cells transfected with mouse GPR55
Type: biochemical
testContext: agonist mode; mean ± SEM, at least three experiments; read-out: GPR55 EC50, Mouse
Please provide measured EC50 for the entries that follow.
The answer is to be given in nM; state only the numeric part.

Query CCCCC/C=C\C/C=C\C/C=C\C/C=C\CCCC(=O)NCCO [AEA, anandamide] yields EC50 of 38

Query C=C(C)[C@@H]1CCC(C)=C[C@H]1c1c(C)cc(O)cc1O yields EC50 of 12

Query Cc1c(C(=O)NN2CCCCC2)nn(-c2ccc(Cl)cc2Cl)c1-c1ccc(I)cc1 yields EC50 of 68

Query CCCCC/C=C\C/C=C\C/C=C\C/C=C\CCCC(=O)NCCCl [ACEA, arachidonyl-2′-chloroethylamide] yields EC50 of 62
